System: BT-549
Assay: NCI tumour cell line growth inhibition, 48 h
Active and inactive are the calls of the source. Rule as the data show it: active = GI50 up to about 1.1 µM and inactive = higher.
Let's look at some compounds and their measured GI50.

A selection of reference data follows.
{"columns": ["compound", "tgt", "measured-quantity", "data-value"],
 "data": [
  ["Nc1c(/C=C/c2cc3cc(C4=NCCN4)ccc3o2)[nH]c2cc(C3=NCCN3)ccc12", "BT-549", "GI50", "43.6 µM (inactive)"],
  ["c1cc(-c2ncc(-c3ccc4c(c3)CCCO4)o2)ccn1", "BT-549", "GI50", "13.2 µM (inactive)"]
]}

Request: Bench note: what GI50 did NCCSCCc1ccccc1 show?
Response: > 100 µM (inactive)

Request: Note, next up: CCOC(=O)C(C(N)=O)C1=Nc2cc([N+](=O)[O-])ccc2N/C1=C\C(=O)c1ccc(C)cc1 (stereo not given)
Response: 22.6 µM (inactive)

Request: Note, next up: O=C(O)c1ccccc1C1c2ccccc2Oc2ccccc21
Response: 72.3 µM (inactive)

Request: Note, next up: O=C1c2c(Br)sc(Br)c2[C@@H](O)[C@H]1O
Response: 17.9 µM (inactive)

Request: Note, next up: Cc1cc(OC(=O)NCn2cc(-c3ccccc3)nn2)ccc1Cl
Response: 68.9 µM (inactive)

Request: Note, next up: CCOC(=O)N1c2ccccc2S(=O)(=O)c2ccccc21
Response: > 100 µM (inactive)

Request: Note, next up: O=C(NC1CCCCC1)c1nn[nH]c1Cl
Response: > 100 µM (inactive)

Request: Note, next up: COC(=O)C1(C)CCCC2(C)C3CCC4CC3(C=C4CO)CCC12 (stereo not given)
Response: 49.3 µM (inactive)

Request: Note, next up: CCOC(=O)NC(=S)NN(C)C1=NCC(C)(C)S1
Response: > 100 µM (inactive)

Request: Note, next up: CC(=O)OC12c3ccccc3C(c3ccccc31)C1C(=O)N(N=C(C)C)C(=O)C12 (stereo not given)
Response: > 100 µM (inactive)

Request: Note, next up: Cn1c(=O)cc(NNc2ccc(Br)cc2)[nH]c1=O
Response: 16.9 µM (inactive)

Request: Note, next up: CCOC(=O)CCCN
Response: > 100 µM (inactive)

Request: Note, next up: O=C1NC(N2CCCC(CO)C2)=N/C1=C\c1cccs1 (stereo not given)
Response: > 100 µM (inactive)

====

Test system: NCI-H23
Assay: NCI tumour cell line growth inhibition, 48 h
The source made the active and inactive calls. Rule as the data show it: active = GI50 up to about 1.1 µM and inactive = higher.
Response enum: active, inactive

Below are worked cases with known answers.
{"columns": ["compound", "group"],
 "data": [
  ["COc1nc2c(OC)cccc2c(OC)c1C=O", "inactive"],
  ["S=c1ssc2c3ssc(=S)c3n(Cc3ccccc3)c12", "inactive"],
  ["C=CCNC1=C2C[C@@H](C)C[C@@H](OC)[C@H](OC(=O)CCN(C)C)[C@H](C)/C=C(\\C)[C@@H](OC(N)=O)[C@H](OC)/C=C\\C=C(/C)C(=O)NC(=CC1=O)C2=O", "active"],
  ["[O-][n+]1ccc(NO)c2ccccc21", "inactive"]
]}

Request: Just curious, what result did CCCCCCCCCCCCOC(=S)NCCCC get here?
Response: inactive

====

Test system: A549
Test: NCI tumour cell line growth inhibition, 48 h
Activity calls are given as the source filed them. No stated cut-off is given here; in the data, active = GI50 up to about 1.1 µM and inactive = higher.
measured-quantity: GI50

{"columns": ["compound", "GI50"],
 "data": [
  ["O=C(C#Cc1ccccc1)N1c2ccccc2CC1c1c[nH]c2ccccc12 (stereo not given)", "18.6 µM (inactive)"],
  ["N#CC(C(=O)CCCC(=O)Nc1ccccc1[N+](=O)[O-])c1c(Cl)cccc1Cl (stereo not given)", "> 100 µM (inactive)"],
  ["O=C(O)CC1NC(/C(=C/c2ccccc2)NC(=O)c2ccccc2)OC1=O (stereo not given)", "84.5 µM (inactive)"],
  ["CC1C(c2ccccc2)O[B-](F)(c2ccccc2)[NH+]1C (stereo not given)", "> 100 µM (inactive)"],
  ["CCOC(=O)C1(Br)S(=O)(=O)OCCOS1(=O)=O", "> 100 µM (inactive)"],
  ["O=C1/C(=C/c2ccc(O)cc2)CCc2ccc([N+](=O)[O-])cc21", "45 µM (inactive)"],
  ["Nc1nn2c(C(Br)Br)cc(C(Br)Br)nc2c1[N+](=O)[O-]", "2.43 µM (inactive)"],
  ["O=[N+]([O-])c1cc(Cc2cc([N+](=O)[O-])c3cccnc3c2O)c(O)c2ncccc12", "6.56 µM (inactive)"]
]}

Kindly consider the entry below.
Request: Bench note: what GI50 did CSc1c(C#N)c2n(c3ccccc3[n+]2C)c2ncccc12 show?
Response: 12.5 µM (inactive)

====

Tested on: HOP-92
Test: NCI tumour cell line growth inhibition, 48 h
Calls of active or inactive are those of the source. No stated cut-off is given here; in the data, active = GI50 up to about 1.1 µM and inactive = higher.
Response enum: label 1 for active, label 0 for inactive

Below are worked cases with known answers.
{"columns": ["compound", "group"],
 "data": [
  ["Nc1nccc2c1ncn2C1C=C(CO)C(O)C1O (stereo not given)", "label 0"],
  ["CC1CCC(O)(C(C)(C(=O)O)c2ccccc2)CC1 (stereo not given)", "label 0"],
  ["CCCCCCCCCCOC1C(C(O)CNCCCN(C)C)OC2OC3(CCCCC3)OC21 (stereo not given)", "label 1"],
  ["CCOC(=O)NC(=O)c1cn(CCCCCCCCCCC(=O)NCCCN2CCN(CCCNC(=O)CCCCCCCCCCn3cc(C(=O)NC(=O)OCC)c(=O)[nH]c3=O)CC2)c(=O)[nH]c1=O", "label 0"]
]}

Request: Just curious, what result did Cc1ccccc1C(=O)N1CCc2c([nH]c3ccccc23)C1 get here?
Response: label 0

====

Test system: OVCAR-3
Assay: NCI tumour cell line growth inhibition, 48 h
The source made the active and inactive calls. Cut-off read from the data, not from the text of the source: active = GI50 up to about 1.1 µM and inactive = higher.
Response enum: YES = active, NO = inactive

{"columns": ["molecule", "group"],
 "data": [
  ["CC(=O)OCC1OC(n2ncc(=O)[nH]c2=O)C(OC(C)=O)C1OC(C)=O (configuration not stated)", "NO"]
]}

Request: Just curious, what result did Oc1ccc2c(c1)OCC(O)(c1ccccc1O)C2 (configuration not stated) get here?
Response: NO

Request: Note, next up: CN1C(=O)CC2CCCN2C1=O (configuration not stated)
Response: NO

Request: Note, next up: CC(=O)OC(C)c1cc2c(s1)C(=O)c1ccsc1C2=O (configuration not stated)
Response: YES

====

Test system: SF-539
Assay: NCI tumour cell line growth inhibition, 48 h
Active and inactive are the calls of the source. No stated cut-off is given here; in the data, active = GI50 up to about 1.1 µM and inactive = higher.
measured-quantity: GI50

{"columns": ["compound", "data-value"],
 "data": [
  ["Cc1cc(NS(=O)(=O)c2ccc(NC(=O)c3ccc4nc5ccccc5c(Nc5ccc(S(N)(=O)=O)cc5)c4c3)cc2)no1", "27.9 µM (inactive)"],
  ["O=c1[nH]c(=O)n(C2C(CO)OC(CO)C2O)cc1F (centres undefined)", "> 100 µM (inactive)"],
  ["CC1CCC2C(C)C(OC(=O)CCC(=O)O)OC3OC4(C)CCC1C32OO4 (centres undefined)", "11 µM (inactive)"]
]}

Kindly consider the entry below.
Request: Bench note: what GI50 did O=C1O[C@@H](c2ccc3c(c2)OCO3)C2C(=O)O[C@@H](c3ccc4c(c3)OCO4)C12 (some centres undefined) show?
Response: > 100 µM (inactive)

====

Test system: RPMI-8226
Assay: NCI tumour cell line growth inhibition, 48 h
Calls of active or inactive are those of the source. Rule as the data show it: active = GI50 up to about 1.1 µM and inactive = higher.
Let's look at some compounds and their measured GI50.

{"columns": ["smiles-representation", "GI50"],
 "data": [
  ["O=C1[C@H](O)[C@@H]2CCC[C@@]23CCCN13", "> 100 µM (inactive)"],
  ["c1ccc(-c2csc3ncn4cnnc4c23)cc1", "59.6 µM (inactive)"],
  ["S=C(S)N1CCN(c2ccc(Cl)c(Cl)c2)CC1", "19.5 µM (inactive)"]
]}

Request: Bench note: what GI50 did O=C(O)C12CC3CC(CC(F)(C3)C1)C2 show?
Response: > 100 µM (inactive)

Request: Note, next up: CCCCCCCCCC(=O)CC(=O)c1c(O)cccc1O
Response: 25.6 µM (inactive)

====

Test system: OVCAR-5
Experiment: NCI tumour cell line growth inhibition, 48 h
Calls of active or inactive are those of the source. No stated cut-off is given here; in the data, active = GI50 up to about 1.1 µM and inactive = higher.
measured-quantity: GI50

{"columns": ["smiles-representation", "measured-quantity", "data-value"],
 "data": [
  ["COC(=O)c1cc2c(n1S(=O)(=O)c1ccc(C)cc1)C(=O)C(=O)c1[nH]cc(C(=O)OCc3ccccc3)c1-2", "GI50", "0.575 µM (active)"],
  ["Cc1ccc(S(=O)(=O)N2CCN(CCN(C)CCN3CCN(S(=O)(=O)c4ccc(C)cc4)CC3)CC2)cc1", "GI50", "28.5 µM (inactive)"],
  ["COc1ccc(/C=c2\\sc3n(c2=O)CCN=3)cc1", "GI50", "> 100 µM (inactive)"],
  ["CN(C)c1ccc2cc3ccc(N(C)C)cc3nc2c1", "GI50", "2.75 µM (inactive)"]
]}

Request: Bench note: what GI50 did CC(=O)OCCOCNC(=S)N/N=C/c1ccc([N+](=O)[O-])s1 show?
Response: 37.3 µM (inactive)

Request: Note, next up: O=C(NCc1ccccc1)c1nn[nH]c1O
Response: > 100 µM (inactive)

Request: Note, next up: O=c1c2ccccc2[nH]c(=S)n1-c1ccc(/N=N/c2cccc3c(O)cccc23)cc1
Response: 76.7 µM (inactive)
